system: 171881-019-R-J1-PDC complex spheroid growth, % test/control; assay: Anticancer human tumor 171881-019-R-J1-PDC patient-derived invasive breast carcinoma cell line growth inhibition [Asc]; conditions: curve of first compound; second compound 0.316 µM
pIC50: −log10 of the molar value.
measurement_name: pIC50

Sample records with pIC50:
[[record]]
compound = "C#Cc1c(F)ccc2cc(O)cc(-c3ncc4c(N5CC6CCC(C5)N6)nc(OCC56CCCN5CC(F)C6)nc4c3F)c12 (stereo not drawn) + Cc1c(S(C)(=O)=O)c(-c2cc(F)cc(N3CCN(c4ccc(NS(=O)(=O)c5ccc(NC(CCN6CCC(C(=O)OCCCP(=O)(O)O)CC6)CSc6ccccc6)c(S(=O)(=O)C(F)(F)F)c5)cc4)CC3)c2)c(-c2ccc(Cl)cc2)n1C(C)C"
measurement_name = "pIC50"
value = "< 5.00"

[[record]]
compound = "CCN1C(C(=O)NC23CCC(C(=O)O)(CC2)CC3)C(c2cccc(Cl)c2F)C2(C(=O)Nc3cc(Cl)ccc32)C12CCCCC2 (stereo not drawn) + Cc1c(S(C)(=O)=O)c(-c2cc(F)cc(N3CCN(c4ccc(NS(=O)(=O)c5ccc(NC(CCN6CCC(C(=O)OCCCP(=O)(O)O)CC6)CSc6ccccc6)c(S(=O)(=O)C(F)(F)F)c5)cc4)CC3)c2)c(-c2ccc(Cl)cc2)n1C(C)C"
measurement_name = "pIC50"
value = "< 5.52"


Shift focus to the following entry.
Task: Item under review: Cn1ncnc1[C@H]1c2n[nH]c(=O)c3cc(F)cc(c23)N[C@@H]1c1ccc(F)cc1 + Cc1c(S(C)(=O)=O)c(-c2cc(F)cc(N3CCN(c4ccc(NS(=O)(=O)c5ccc(NC(CCN6CCC(C(=O)OCCCP(=O)(O)O)CC6)CSc6ccccc6)c(S(=O)(=O)C(F)(F)F)c5)cc4)CC3)c2)c(-c2ccc(Cl)cc2)n1C(C)C . Reported pIC50?
Output: < 7.00
